- experimental.target: H. sapiens SLC2A9 variant 2 (GLUT9B) (Homo sapiens, UniProt Q9NRM0)
- Sequence (Q9NRM0 1-511 isoform Q9NRM0-2): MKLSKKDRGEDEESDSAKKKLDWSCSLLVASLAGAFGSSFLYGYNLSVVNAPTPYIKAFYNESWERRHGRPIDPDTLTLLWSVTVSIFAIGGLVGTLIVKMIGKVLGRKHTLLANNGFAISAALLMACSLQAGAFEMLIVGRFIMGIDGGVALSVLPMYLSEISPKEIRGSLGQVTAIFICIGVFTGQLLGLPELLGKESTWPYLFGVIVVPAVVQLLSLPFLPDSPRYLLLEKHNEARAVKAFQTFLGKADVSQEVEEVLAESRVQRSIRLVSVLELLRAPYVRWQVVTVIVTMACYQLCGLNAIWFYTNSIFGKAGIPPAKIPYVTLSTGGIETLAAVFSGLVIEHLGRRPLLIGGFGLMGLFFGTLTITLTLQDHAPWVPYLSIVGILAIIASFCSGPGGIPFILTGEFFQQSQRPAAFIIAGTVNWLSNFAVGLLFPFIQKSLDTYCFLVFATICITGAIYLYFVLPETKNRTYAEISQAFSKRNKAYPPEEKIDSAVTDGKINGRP
- test: GLUT9 functional assay: uric acid uptake in HEK293T cells, allantoin formation by MS/MS as proxy of GLUT9B inhibition
- Format: cell-based
- details: 15 minute assay; HEK293T cells stably expressing GLUT9B and transiently A. oryzae uricase; uric acid 0.3 mM, 37° C.; read-out: 15 min IC50
pIC50: −log10 of the molar value.
readout.kind: pIC50

# input Please list pIC50 recorded for the compound O=C(O)C1CCN(c2nc(CCCOC(F)(F)F)cnc2-c2ccc3occc3c2)CC1 [Compound 151]
# output > 6.30

# input Please list pIC50 recorded for the compound COCCOc1ccc(-c2ncc(CCC3CC3)nc2N2CCC(C(=O)O)CC2)cc1 [Compound 74]
# output 5.70 to 6.30

# input Please list pIC50 recorded for the compound COCc1cnc(-c2cc(F)c3c(c2)CCO3)c(N2CCC(C(=O)O)CC2)n1 [Compound 55]
# output 5.70 to 6.30

# input Please list pIC50 recorded for the compound CCCCc1cnc(-c2ccc(OC)cc2)c(N2CCC(C)(C(=O)O)CC2)n1 [Compound 14]
# output > 6.30

# input Please list pIC50 recorded for the compound COCCOc1ccc(-c2ncc(COCC(F)(F)F)nc2N2CCC(c3nn[nH]n3)CC2)cc1 [Compound 68]
# output < 5.70

# input Please list pIC50 recorded for the compound COCCCc1cnc(-c2cc(F)c3occc3c2)c(N2CCC(C(=O)O)CC2)n1 [Compound 173]
# output > 6.30

# input Please list pIC50 recorded for the compound O=C(O)C1CCN(c2nc(CCCCC(F)(F)F)cnc2-c2ccc3occc3c2)CC1 [Compound 130]
# output > 6.30

# input Please list pIC50 recorded for the compound O=C(O)C1CCN(c2nc(CCC(F)(F)F)cnc2-c2cc(F)c3occc3c2)CC1 [Compound 61]
# output > 6.30

# input Please list pIC50 recorded for the compound COc1cc(-c2ncc(CCC(F)(F)F)nc2N2CCC(C(=O)O)CC2)ccc1Cl [Compound 62]
# output < 5.70

# input Please list pIC50 recorded for the compound O=C(O)C1CCN(c2nc(CCC(F)(F)F)cnc2-c2ccc3occc3c2)CC1 [Compound 121]
# output > 6.30
